assay: yeast display, Sf9 membrane polyspecificity reagent, FACS + sequencing; frameworks hold sequencing errors
recorded endpoint: polyreactivity (PSR sort gate)

Guide cases for polyreactivity (PSR sort gate), answers given:
QVQLVESGGGLVQAGGSLRLSSAASGLIFSVYAMGWYRQAPGKERELVAAISSRGGTTYYADSVKGRFTISRDNAKNTVYLQMNSLKPEDTAVYYCAARSWSYTYDYWGQGTQVTVSS: high polyreactivity
QVQLVESGGGLVQAGGSLRLSCAASGPIFATNAMGWYRQAPGKERELVASISSGGGSTYYADSVKGRFTISRDNAKNTVYLQMNSLKPEDTAVYYCAADYYTGYVWEDYYWGQGTQVTVSS: low polyreactivity
QVQLVESGGGLVQAGGSLRLSCAASGSTFTPYAMGWYRQAPGKDREFVAVITRSGTRTYYADSVKGRFTISRDNAKNTVYLQMNSLKPEDTAVSYCAADRHPYNRYDYYYWGQGTQVTVSS: high polyreactivity
QGQLVESGGGLVQAGVSLRLSCAASGSIFGFYGMGWYRQAPGKERELVAAISYRGGNTYYADSVKGRFTSSRDNAKNTVFLQKNSLKPEDTAVYYCNSMWKHGAYRGAYGYWGQGTQVTVSS: high polyreactivity
QVQLVESGGGLVQAGGSLRLSCAASGYTLSLNAMGWYRQAPGKERELVAVISWNGGRTRYADSVKGRFTISRDNAKNTVYLQMNSLKPEDTAVYYCNADIYARTYAGYYQWRPYDYWGQGTQVTVSS: high polyreactivity

Entry under review: QVQLVESGGGLVQAGGSLRLSCAASGITFTGNSMGWYRQAPGKERELVAAISNRGGSTYYADSVKGRFTISRDNAKNTVYLQMNSLKREDTAVYYCRTSTPRRVSGNYWGQGTQVTVSS . Reported polyreactivity (PSR sort gate)?
high polyreactivity

Entry under review: QVQLVESGGGLVQAGGSLRLSCAASGFIFSRYTMGWYRQAPGKERELVAAITWSGGSTYYADSVKGRFTISRDNAKNTVYLQMNSLKPVDTAVYYCAAARISVVQGDYWGQGTQVTVSS . Reported polyreactivity (PSR sort gate)?
high polyreactivity

Entry under review: QVQLVESGGGLVQAGGSLRLSCAASGFIFRRYAMGWYRQAPGKERELVAAITSSGTSTYYADSVKGRFTISRDNAKNTVYLQMNSLKPEDTAVYYCNAAQYYERFNHWGQGTQVTVSS . Reported polyreactivity (PSR sort gate)?
high polyreactivity

Entry under review: QVQLVESGGGLVQAGGSLRLSCDASGYIFSANAMGWYRQSPGKERELVAAITSSGGSTYYADSVKGRFTISRDNAKNTVYLQMNSLKPEDTAVYYCAAYSIYYRSGYPSRYRYYYWGQGTQVTVSS . Reported polyreactivity (PSR sort gate)?
high polyreactivity

Entry under review: QVQLVESGVGLVQAGGSLRLSCAASGGTFGYYVMGWYRQATGKESELVAAITSGGSTKYADSVKGRFTISRDNAKNTVYLQMNSLNPEDTAVYYCAADVTRREPYQSYDFWGQGTQVTVSS . Reported polyreactivity (PSR sort gate)?
low polyreactivity

Entry under review: QVQLVESGGGLVQAGGSLRLSCAASGSTFYTNAMGWYRQAPGKERELVAAISASVGSTYYADSVKGRFTISRDNAKNTVYLQMNSLKPEDTAVYNCAADVWASRRYDYWGQGTQVTLSS . Reported polyreactivity (PSR sort gate)?
low polyreactivity
